experiment: Metabolic stability in mouse liver cytosol measured upto 60 mins by LC-MS/MS method; assay type: ADME, subcellular; details: read-out: Stability
experimental_endpoint: remaining at 1 h

Challenge: Form field: reported remaining at 1 h of `Cc1ccc([C@@H]2C[C@H](CN[C@H](C)c3cccc4ccccc34)Oc3ccccc32)cc1C(=O)O.Cl`
Response given: > 80%

* * *

assay: Half life in cynomolgus monkey at 1 mg/kg, iv measured upto 24 hrs by LC/MS-MS analysis; format: ADME, organism-based, Macaca fascicularis; conditions: in vivo
experimental_endpoint: half-life (h)
Numeric answer only, unit h assumed.

Challenge: Form field: reported half-life of `Cc1ccc([C@@H]2C[C@H](CN[C@H](C)c3cccc4ccccc34)Oc3ccccc32)cc1C(=O)O.Cl`
Response given: 5

* * *

assay: Microsomal stability in rat liver microsomes assessed as parent compound remaining at 1 uM measured upto 30 mins in presence of NADPH by LC-MS/MS analysis; format: ADME, Microsome; details: read-out: Stability
experimental_endpoint: remaining at 0.5 h, 1 µM
Please make sure the unit comes right after the number.

Challenge: Form field: reported remaining at 0.5 h, 1 µM of `Cc1cc(C(=O)O)cc([C@@H]2C[C@H](CN[C@H](C)c3cccc4ccccc34)Oc3ccccc32)c1`
Response given: 25%

Challenge: Form field: reported remaining at 0.5 h, 1 µM of C[C@@H](NCC1CN(c2cccc(OCC(=O)O)c2)c2ccccc2O1)c1cccc2ccccc12 (some centres not stated)
Response given: 87%

Challenge: Form field: reported remaining at 0.5 h, 1 µM of C[C@@H](NCC1CN(c2ccccc2)c2ccccc2O1)c1cccc2ccccc12 (mixture of isomers; form 1)
Response given: 3%

Challenge: Form field: reported remaining at 0.5 h, 1 µM of `C[C@@H](NC[C@H]1C[C@H](c2cccc(C(=O)O)c2)c2ccccc2O1)c1cccc2ccccc12`
Response given: 31%

Challenge: Form field: reported remaining at 0.5 h, 1 µM of `Cc1ccc([C@@H]2C[C@H](CN[C@H](C)c3cccc4ccccc34)Oc3ccccc32)cc1C(=O)O.Cl`
Response given: 77%

New cases:
Challenge: Form field: reported remaining at 0.5 h, 1 µM of `Cc1c(C(=O)O)cccc1[C@@H]1C[C@H](CN[C@H](C)c2cccc3ccccc23)Oc2ccccc21`
Response given: 52%

Challenge: Form field: reported remaining at 0.5 h, 1 µM of `Cc1ccc([C@@H]2C[C@@H](CN[C@H](C)c3cccc4ccccc34)Oc3ccccc32)cc1C(=O)O`
Response given: 47%

* * *

assay: Tmax in Sprague-Dawley rat at 30 mg/kg; assay type: ADME, organism-based; settings: in vivo
experimental_endpoint: Tmax
Please make sure the unit comes right after the number.

Challenge: Form field: reported Tmax of `Cc1ccc([C@@H]2C[C@H](CN[C@H](C)c3cccc4ccccc34)Oc3ccccc32)cc1C(=O)O.Cl`
Response given: 30 min

* * *

assay: Microsomal stability in human liver microsomes assessed as parent compound remaining at 1 uM measured upto 30 mins in presence of NADPH by LC-MS/MS analysis; type: ADME, Microsome; settings: liver microsomes, read-out: Stability
# remaining at 0.5 h, 1 µM annotations
Numeric answer only, unit % assumed.

Challenge: Form field: reported remaining at 0.5 h, 1 µM of `C[C@@H](NCCCc1cccc(C(F)(F)F)c1)c1cccc2ccccc12`
Response given: 65

New cases:
Challenge: Form field: reported remaining at 0.5 h, 1 µM of Cc1ccc(N2CC(CN[C@H](C)c3cccc4ccccc34)Oc3ccccc32)cc1C(=O)O.Cl (some centres undefined)
Response given: 45

Challenge: Form field: reported remaining at 0.5 h, 1 µM of C[C@@H](NCC1CN(C)c2ccccc2O1)c1cccc2ccccc12 (some centres undefined)
Response given: 5

Challenge: Form field: reported remaining at 0.5 h, 1 µM of `Cc1ccc(C(=O)O)cc1[C@@H]1C[C@H](CN[C@H](C)c2cccc3ccccc23)Oc2ccccc21`
Response given: 80

Challenge: Form field: reported remaining at 0.5 h, 1 µM of C[C@@H](NCC1CN(c2cccc(OCC(=O)O)c2)c2ccccc2O1)c1cccc2ccccc12 (some centres undefined)
Response given: 45

Challenge: Form field: reported remaining at 0.5 h, 1 µM of C[C@@H](NCC1CNc2ccccc2O1)c1cccc2ccccc12 (some centres undefined)
Response given: 18

Challenge: Form field: reported remaining at 0.5 h, 1 µM of `C[C@@H](NC[C@H]1C[C@@H](c2cccc(C(=O)O)c2)c2ccccc2O1)c1cccc2ccccc12`
Response given: 42

Challenge: Form field: reported remaining at 0.5 h, 1 µM of C[C@@H](NCC1CN(CC(F)(F)F)c2ccccc2O1)c1cccc2ccccc12 (some centres undefined)
Response given: 10

Challenge: Form field: reported remaining at 0.5 h, 1 µM of `Cc1ccc([C@H]2C[C@@H](CN[C@H](C)c3cccc4ccccc34)Oc3ccccc32)cc1C(=O)O`
Response given: 74

* * *

test: Stability in mouse plasma measured up to 4 hrs by LC-MS/MS method; format: ADME, cell-free; conditions: read-out: Stability
experimental_endpoint: remaining at 4 h

Challenge: Form field: reported remaining at 4 h of `Cc1ccc([C@@H]2C[C@H](CN[C@H](C)c3cccc4ccccc34)Oc3ccccc32)cc1C(=O)O.Cl`
Response given: > 80%

* * *

experiment: Drug excretion in rat assessed as drug recovery in feces at 10 mg/kg, po; assay type: ADME, organism-based; conditions: faeces, read-out: Drug recovery
experimental_endpoint: dose excreted (%)
Numeric answer only, unit % assumed.

Challenge: Form field: reported dose excreted of `Cc1ccc([C@@H]2C[C@H](CN[C@H](C)c3cccc4ccccc34)Oc3ccccc32)cc1C(=O)O.Cl`
Response given: 3

* * *

experiment: Protein binding in human plasma incubated for 16 hrs under shaking condition by rapid equilibrium dialysis based LC-MS/MS method; assay type: ADME, cell-free; details: read-out: PPB
experimental_endpoint: fraction unbound at 16 h

Challenge: Form field: reported fraction unbound at 16 h of `Cc1ccc([C@@H]2C[C@H](CN[C@H](C)c3cccc4ccccc34)Oc3ccccc32)cc1C(=O)O.Cl`
Response given: < 0.01

* * *

experiment: Drug excretion in BALB/c mouse assessed as drug recovery in feces at 10 mg/kg, po; format: ADME, organism-based; conditions: faeces, read-out: Drug recovery
experimental_endpoint: dose excreted

Challenge: Form field: reported dose excreted of `Cc1ccc([C@@H]2C[C@H](CN[C@H](C)c3cccc4ccccc34)Oc3ccccc32)cc1C(=O)O.Cl`
Response given: 23%

* * *

experiment: Apparent permeability across basolateral to apical side in human Caco-2 cells at 5 uM measured after 30 to 120 mins by LC-MS/MS analysis; assay type: ADME, cell-based; conditions: time 30-120 min
experimental_endpoint: Papp B→A at 5 µM (×10⁻⁶ cm/s)
Numeric answer only, unit ×10⁻⁶ cm/s assumed.

Challenge: Form field: reported Papp B→A at 5 µM of `Cc1ccc([C@@H]2C[C@H](CN[C@H](C)c3cccc4ccccc34)Oc3ccccc32)cc1C(=O)O.Cl`
Response given: 6.3

* * *

# remaining at 0.5 h, 1 µM annotations
test: Microsomal stability in human liver microsomes assessed as parent compound remaining at 1 uM measured upto 30 mins in presence of NADPH by LC-MS/MS analysis; assay type: ADME, Microsome; conditions: liver microsomes, read-out: Stability
Numeric answer only, unit % assumed.

Sample answers from the record:
Challenge: Form field: reported remaining at 0.5 h, 1 µM of C[C@@H](NCC1CN(c2ccccc2)c2ccccc2O1)c1cccc2ccccc12 (mixture of isomers; form 1)
Response given: 1

Challenge: Form field: reported remaining at 0.5 h, 1 µM of C[C@@H](NCC1CN(c2ccccn2)c2ccccc2O1)c1cccc2ccccc12 (stereo partly drawn)
Response given: 2

Challenge: Form field: reported remaining at 0.5 h, 1 µM of C[C@@H](NCC1CN(c2ccc(F)c(C(=O)O)c2)c2ccccc2O1)c1cccc2ccccc12 (mixture of isomers; form 1)
Response given: 6

Challenge: Form field: reported remaining at 0.5 h, 1 µM of `C[C@@H](NC[C@H]1C[C@@H](c2ccc(F)c(C(=O)O)c2)c2ccccc2O1)c1cccc2ccccc12`
Response given: 94

Challenge: Form field: reported remaining at 0.5 h, 1 µM of C[C@@H](NCC1CN(C(=O)c2ccccc2)c2ccccc2O1)c1cccc2ccccc12 (mixture of isomers; form 1)
Response given: 3

Challenge: Form field: reported remaining at 0.5 h, 1 µM of `Cc1cc(C(=O)O)cc([C@@H]2C[C@H](CN[C@H](C)c3cccc4ccccc34)Oc3ccccc32)c1`
Response given: 80

New cases:
Challenge: Form field: reported remaining at 0.5 h, 1 µM of `Cc1c(C(=O)O)cccc1[C@@H]1C[C@H](CN[C@H](C)c2cccc3ccccc23)Oc2ccccc21`
Response given: 47

Challenge: Form field: reported remaining at 0.5 h, 1 µM of `C[C@@H](N[C@H]1CCN(c2ccc(CC(=O)O)cc2)C1)c1cccc2ccccc12`
Response given: 68

* * *

test: Toxicity in mouse assessed as NOAEL; settings: in vivo
experimental_endpoint: NOAEL (mg/kg/day)
Numeric answer only, unit mg/kg/day assumed.

Challenge: Form field: reported NOAEL of `Cc1ccc([C@@H]2C[C@H](CN[C@H](C)c3cccc4ccccc34)Oc3ccccc32)cc1C(=O)O.Cl`
Response given: 50
